# assay_details: Antiproliferative activity against human MV4-11 cells harboring MLL-AF4 after 7 days by CellTiter-Glo luminescent cell viability Assay
# Type: functional, cell-based
# experimental_setup: MV4-11, 168 h
property_label: IC50 (µM)
One number for each entry, in µM.

Q: I would be grateful if you could share the reported IC50 for CCC(CC)(NC(=O)C(C)C)C(=O)N[C@@H](CCCNC(=N)N)C(=O)NC1(C(=O)NC(c2ccc(F)cc2)c2ccc(F)cc2)CCCC1 .
Ans: 25

* * *

# assay_target: WD repeat-containing protein 5 (Homo sapiens)
property_label: pKd
Give bare numbers, as −log10 of the molar value.

Q: Item under review: COC(=O)c1ccc(N2CCN(C)CC2)c(NC(=O)c2cccc(OC)c2)c1 . Reported pKd?
Ans: 5.52

* * *

# assay_target: WD repeat-containing protein 5 (Homo sapiens)
For each record, check the reported IC50: if it is below 300 nM write yes (1), else write no (0).

CN1CCN(c2ccc(C(=O)Oc3ccccc3)cc2NC(=O)c2ccc(F)c([N+](=O)[O-])c2)CC1: no (0)
CCOC(=O)c1ccc(N2CCN(C)CC2)c(NC(=O)c2ccc(F)c(C)c2Cl)c1: yes (1)
COC(=O)c1ccc(N2CCN(C)CC2)c(NC(=O)c2cc(N)c(F)c(C)c2Cl)c1: yes (1)
Cc1c(F)c(N)cc(C(=O)Nc2cc(C(=O)Oc3ccccc3)ccc2N2CCN(C)CC2)c1Cl: yes (1)

Shift focus to the following entry.
Q: Does this compound meet the criterion IC50 < 300 nM? COC(=O)c1ccc(N2CCN(C)CC2)c(NC(=O)c2ccc(F)c(C)c2Cl)c1
Ans: no (0)

* * *

Each entry below carries its measured IC50, system: WD repeat-containing protein 5 (Homo sapiens, UniProt P61964).

Below is a list of molecules. For each, state its recorded IC50.
1. CN1CCN(c2ccc(C(=O)OC3CCCCC3)cc2NC(=O)c2ccc(F)c([N+](=O)[O-])c2)CC1
2. Cc1c(F)ccc(C(=O)Nc2cc(C(=O)O)ccc2N2CCN(C)CC2)c1Cl
3. Cc1c(F)c([N+](=O)[O-])cc(C(=O)Nc2cc(C(=O)OC3CCCCC3)ccc2N2CCN(C)CC2)c1Cl
4. COC(=O)c1ccc(N2CCN(C)CC2)c(NC(=O)c2ccc(F)c(N)c2)c1

Ans:
1: > 20000 nM; 2: > 20000 nM; 3: > 20 nM; 4: > 20 nM

Q: Value lookup for IC50; key = CN1CCN(c2ccc(C(=O)OC3CCCCC3)cc2NC(=O)c2ccc(F)c(N)c2)CC1
Ans: > 20 nM

All values here come from ChEMBL document CHEMBL3856283.
